The measurements presented in this section are drawn from the kinase profiling compilation of Christmann-Franck et al. (2016).

Entries and their residual activity values follow.
Biological target: TYK2 JH1 catalytic (human) (UniProt P29597)
Sequence (P29597 whole entry, looked up): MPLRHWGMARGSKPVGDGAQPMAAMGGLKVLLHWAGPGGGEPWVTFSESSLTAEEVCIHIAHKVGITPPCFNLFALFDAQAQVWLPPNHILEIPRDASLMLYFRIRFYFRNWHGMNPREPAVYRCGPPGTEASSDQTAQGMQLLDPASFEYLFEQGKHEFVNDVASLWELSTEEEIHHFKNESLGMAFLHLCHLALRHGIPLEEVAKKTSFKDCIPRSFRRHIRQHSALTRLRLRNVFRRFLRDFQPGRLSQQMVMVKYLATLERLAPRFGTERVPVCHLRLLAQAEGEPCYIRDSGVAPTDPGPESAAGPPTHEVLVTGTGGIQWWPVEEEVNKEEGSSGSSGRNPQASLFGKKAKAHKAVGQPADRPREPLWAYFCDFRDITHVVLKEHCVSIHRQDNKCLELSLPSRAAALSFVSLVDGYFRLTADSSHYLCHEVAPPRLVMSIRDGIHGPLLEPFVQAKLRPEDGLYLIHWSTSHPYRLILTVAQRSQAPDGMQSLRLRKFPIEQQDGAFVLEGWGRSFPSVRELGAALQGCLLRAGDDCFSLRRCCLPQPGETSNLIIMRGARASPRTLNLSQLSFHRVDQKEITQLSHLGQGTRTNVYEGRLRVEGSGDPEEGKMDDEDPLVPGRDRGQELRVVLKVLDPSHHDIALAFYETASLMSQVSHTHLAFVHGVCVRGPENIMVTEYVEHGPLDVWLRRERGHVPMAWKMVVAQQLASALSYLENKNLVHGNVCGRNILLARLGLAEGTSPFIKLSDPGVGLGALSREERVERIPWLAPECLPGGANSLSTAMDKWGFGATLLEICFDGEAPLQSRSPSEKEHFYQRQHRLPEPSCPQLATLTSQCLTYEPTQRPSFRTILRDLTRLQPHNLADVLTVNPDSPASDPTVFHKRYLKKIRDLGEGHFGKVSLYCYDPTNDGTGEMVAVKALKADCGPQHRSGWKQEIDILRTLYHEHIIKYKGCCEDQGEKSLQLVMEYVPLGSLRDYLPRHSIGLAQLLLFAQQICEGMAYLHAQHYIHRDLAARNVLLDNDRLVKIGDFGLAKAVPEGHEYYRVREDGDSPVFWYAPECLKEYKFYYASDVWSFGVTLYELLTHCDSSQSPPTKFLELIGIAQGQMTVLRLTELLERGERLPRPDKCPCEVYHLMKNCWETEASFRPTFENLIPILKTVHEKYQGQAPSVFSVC
Assay: radiometric filter-binding kinase assay, Kinase HotSpot
Settings: compound 0.5 µM; ATP 10 µM
Provide a numeric answer, followed by its unit.

Solved entries:
FC(F)(F)c1ccc(/C=C/c2nc(COc3ccc(CCCCn4ccnn4)cc3)co2)cc1 :: 99.1%
O=C1NC(=O)c2cc(Nc3ccc(F)cc3)c(Nc3ccc(F)cc3)cc21 :: 80.6%
COc1cc2c(cc1OC)-c1[nH]nc(Nc3cccc(F)c3)c1C2 :: 81.3%

From here, focus on the item given below.
Asked: Give the value of residual activity reported for the following: N/C(=N\N=C/c1ccc(-c2cccc([N+](=O)[O-])c2)o1)N[N+](=O)[O-]
Given back: 110%
